Cited source: paper PMC8952009

This section lists IC50 readings for UniProtKB P0C6X7.
Report the value in µM with no unit label.

| compound | tested-system | value |
| --- | --- | --- |
| COc1cc(-c2oc3cc(O)cc(O)c3c(=O)c2O)ccc1O [Isorhamnetin] | UniProtKB P0C6X7 | 13.1 |

Provide the documented IC50 with UniProtKB P0C6X7 as the system for Cc1cc(O)c2c(=O)c3c(O)cc(O)c4c5c(O)cc(O)c6c(=O)c7c(O)cc(C)c8c1c2c(c34)c(c78)c65 [Hypericin] 19.4

====

pKd: recorded values
Target: recombinant M^pro of SARS-CoV-1 (Severe acute respiratory syndrome coronavirus)
Assay: biochemical
Entry type: numeric. Quantity: pKd, the -log10 of concentration in molar units.

| molecule | pKd |
| --- | --- |
| COc1cc(-c2oc3cc(O)cc(O)c3c(=O)c2O)ccc1O [Isorhamnetin] | 5.44 |

Now consider the entry below.
Would you kindly share the measured pKd for Cc1cc(O)c2c(=O)c3c(O)cc(O)c4c5c(O)cc(O)c6c(=O)c7c(O)cc(C)c8c1c2c(c34)c(c78)c65 [Hypericin] ? 4.59
